// reported IC50 for each item listed
# System: MCF-7
# method-description: MTT cell viability assay, MCF-7
# Assay type: cell-based, human
# experimental-setup: Homo sapiens, MCF7; Table S1, MCF-7; read-out: IC50 (mean ± SD)
measure-name: IC50 (µM)

compound="C=C(CBr)C1CC[C@]2(C)C(CCC3C4C(C(C)C)CC[C@]4(COC(=O)c4ccccc4)CC[C@]32C)[C@@]1(C)CCC#N (stereo partly drawn)" measure_name=IC50 comparison_sign=> result=200
compound="CC1=C(C#N)C[C@@]2(C)C1CC[C@]1(C)C2CCC2C3C(C(C)C)CC[C@]3(CO)CC[C@]21C (stereo partly drawn)" measure_name=IC50 comparison_sign== result=89.3
compound="CC(C)C1CC[C@]2(CO)CC[C@]3(C)C(CCC4[C@@]5(C)C[C@@H](C#N)C[C@H](O)C5CC[C@]43C)C12 (stereo partly drawn)" measure_name=IC50 comparison_sign=> result=100
compound="C=C1C[C@H](C#N)C[C@@]2(C)C1CC[C@]1(C)C2CCC2C3C(C(C)C)CC[C@]3(C(=O)OC)CC[C@]21C (stereo partly drawn)" measure_name=IC50 comparison_sign=> result=100
compound="C=C(C=O)C1CC[C@]2(C)C(CCC3C4C(C(C)C)CC[C@]4(COC(=O)c4ccccc4)CC[C@]32C)[C@@]1(C)CCC#N (stereo partly drawn)" measure_name=IC50 comparison_sign=> result=200
compound="COC(=O)[C@]12CCC(C(C)C)C1C1CCC3[C@@](C)(CCC#N)C(C(C)=O)CC[C@@]3(C)[C@]1(C)CC2 (stereo partly drawn)" measure_name=IC50 comparison_sign== result=97.5
compound="C=C1C2CC[C@]3(C)C(CCC4C5C(C(C)C)CC[C@]5(CO)CC[C@]43C)[C@@]2(C)C[C@@H](C#N)[C@@H]1O (stereo partly drawn)" measure_name=IC50 comparison_sign=> result=200
compound="CC(C)C1CC[C@]2(CO)CC[C@]3(C)C(CCC4[C@@]5(C)C[C@@H](C#N)CC(=O)C5CC[C@]43C)C12 (stereo partly drawn)" measure_name=IC50 comparison_sign=> result=100
compound="C=C1C=C(C#N)C[C@@]2(C)C1CC[C@]1(C)C2CCC2C3C(C(C)C)CC[C@]3(CO)CC[C@]21C (stereo partly drawn)" measure_name=IC50 comparison_sign=> result=100
compound="CC(C)C1CC[C@]2(COC(=O)c3ccccc3)CC[C@]3(C)C(CCC4[C@@](C)(CCC#N)C(C(=O)C(Br)Br)CC[C@]43C)C12 (stereo partly drawn)" measure_name=IC50 comparison_sign== result=49
compound="COC(=O)[C@]12CCC(C(C)C)C1C1CCC3[C@@]4(C)CC(C#N)=C(C)C4CC[C@@]3(C)[C@]1(C)CC2 (stereo partly drawn)" measure_name=IC50 comparison_sign== result=70.2
compound="C=C1C2CC[C@]3(C)C(CCC4C5C(C(C)C)CC[C@]5(C(=O)OC)CC[C@]43C)[C@@]2(C)C[C@@H](C#N)[C@@H]1O (stereo partly drawn)" measure_name=IC50 comparison_sign=> result=100
compound="CC(=O)C1CC[C@]2(C)C(CCC3C4C(C(C)C)CC[C@]4(COC(=O)c4ccccc4)CC[C@]32C)[C@@]1(C)CCC#N (stereo partly drawn)" measure_name=IC50 comparison_sign=> result=100
compound="CC(C)C1CC[C@]2(CO)CC[C@]3(C)C(CCC4[C@@]5(C)CC(C#N)=CC(=O)C5CC[C@]43C)C12 (stereo partly drawn)" measure_name=IC50 comparison_sign== result=56.7
compound="COC(=O)[C@]12CCC(C(C)C)C1C1CCC3[C@@]4(C)C[C@@H](C#N)CC(=O)C4CC[C@@]3(C)[C@]1(C)CC2 (stereo partly drawn)" measure_name=IC50 comparison_sign=> result=100
compound="C=C1C[C@H](C#N)C[C@@]2(C)C1CC[C@]1(C)C2CCC2C3C(C(C)C)CC[C@]3(CO)CC[C@]21C (stereo partly drawn)" measure_name=IC50 comparison_sign== result=64.2
compound="COC(=O)[C@]12CCC(C(C)C)C1C1CCC3[C@@]4(C)CC(C#N)=CC(=O)C4CC[C@@]3(C)[C@]1(C)CC2 (stereo partly drawn)" measure_name=IC50 comparison_sign=> result=100
compound="C=C(C=O)C1CC[C@]2(C)C(CCC3C4C(C(C)C)CC[C@]4(C(=O)OC)CC[C@]32C)[C@@]1(C)CCC#N (stereo partly drawn)" measure_name=IC50 comparison_sign=> result=200
compound="COc1cccc2c1C(=O)c1c(O)c3c(c(O)c1C2=O)C[C@@](O)(C(=O)CO)C[C@@H]3O[C@H]1C[C@H](N)[C@H](O)[C@H](C)O1 [Dox, doxorubicin, reference compound]" measure_name=IC50 comparison_sign== result=0.38
compound="C=C1C=C(C#N)C[C@@]2(C)C1CC[C@]1(C)C2CCC2C3C(C(C)C)CC[C@]3(C(=O)OC)CC[C@]21C (stereo partly drawn)" measure_name=IC50 comparison_sign=> result=100
compound="COC(=O)[C@]12CCC(C(C)C)C1C1CCC3[C@@](C)(CCC#N)C(C(=O)CBr)CC[C@@]3(C)[C@]1(C)CC2 (stereo partly drawn)" measure_name=IC50 comparison_sign== result=12
compound=COC(=O)[C@]12CC[C@@H](C(C)C)[C@@H]1[C@H]1CC[C@@H]3[C@@](C)(CCC#N)[C@H](C(=O)C(Br)Br)CC[C@@]3(C)[C@]1(C)CC2 measure_name=IC50 comparison_sign== result=7.06
compound="C=C(CBr)C1CC[C@]2(C)C(CCC3C4C(C(C)C)CC[C@]4(C(=O)OC)CC[C@]32C)[C@@]1(C)CCC#N (stereo partly drawn)" measure_name=IC50 comparison_sign=> result=100
compound="CC(C)C1CC[C@]2(COC(=O)c3ccccc3)CC[C@]3(C)C(CCC4[C@@](C)(CCC#N)C(C(=O)CBr)CC[C@]43C)C12 (stereo partly drawn)" measure_name=IC50 comparison_sign== result=86.1
